assay: activity coefficient (dimensionless); of the first substance listed, at infinite dilution; xn = mol fraction of the nth substance listed; conditions: 333.15 K; Liquid; Dilutor technique; x1 = 0
Metric: activity coefficient

# Compound, Test value
data = [
    ("C1=CCCCC1 [cyclohexene] + CCCCCCn1cc[n+](C)c1.F[B-](F)(F)F", 7.05),
    ("C1=CCCCC1 [cyclohexene] + CCCCCC[n+]1cccc(C)c1.O=S(=O)([N-]S(=O)(=O)C(F)(F)F)C(F)(F)F", 3.02),
    ("c1ccccc1 [benzene] + CCCCCC[n+]1cccc(C)c1.O=S(=O)([N-]S(=O)(=O)C(F)(F)F)C(F)(F)F", 0.701),
    ("c1ccccc1 [benzene] + CCCCn1cc[n+](C)c1.F[B-](F)(F)F", 2.22),
]

Consider now this further compound.
What activity coefficient value was documented for this compound, c1ccccc1 [benzene] + CCCCCCn1cc[n+](C)c1.F[B-](F)(F)F ?
1.91

---

assay: activity coefficient (dimensionless); of the first substance listed, at infinite dilution; xn = mol fraction of the nth substance listed; conditions: 323.15 K; Liquid; Dilutor technique; x1 = 0
Recorded activity coefficient values for a group of compounds are listed next.
Response field accepts a number only; no unit should be typed.

Some solved cases for reference:
# Compound, Test value
records = [
    ("c1ccccc1 [benzene] + CCCCn1cc[n+](C)c1.F[B-](F)(F)F", 2.25),
    ("C1=CCCCC1 [cyclohexene] + CCCCCC[n+]1cccc(C)c1.O=S(=O)([N-]S(=O)(=O)C(F)(F)F)C(F)(F)F", 3.13),
    ("c1ccccc1 [benzene] + CCCCCCn1cc[n+](C)c1.F[B-](F)(F)F", 1.56),
    ("c1ccccc1 [benzene] + CCCCCC[n+]1cccc(C)c1.O=S(=O)([N-]S(=O)(=O)C(F)(F)F)C(F)(F)F", 0.691),
]

Consider now this further compound.
What activity coefficient value was documented for this compound, C1=CCCCC1 [cyclohexene] + CCCCCCn1cc[n+](C)c1.F[B-](F)(F)F ?
7.5

---

assay: activity coefficient (dimensionless); of the first substance listed, at infinite dilution; xn = mol fraction of the nth substance listed; settings: 313.15 K; Liquid; Dilutor technique; x1 = 0
Metric: activity coefficient

Some solved cases for reference:
# Molecule, activity coefficient
measured = [
    ("c1ccccc1 [benzene] + CCCCCC[n+]1cccc(C)c1.O=S(=O)([N-]S(=O)(=O)C(F)(F)F)C(F)(F)F", 0.683),
    ("c1ccccc1 [benzene] + CCCCn1cc[n+](C)c1.F[B-](F)(F)F", 2.34),
    ("C1=CCCCC1 [cyclohexene] + CCCCCCn1cc[n+](C)c1.F[B-](F)(F)F", 7.63),
]

What activity coefficient value was documented for this molecule, c1ccccc1 [benzene] + CCCCCCn1cc[n+](C)c1.F[B-](F)(F)F ?
1.45

// repeat for C1=CCCCC1 [cyclohexene] + CCCCCC[n+]1cccc(C)c1.O=S(=O)([N-]S(=O)(=O)C(F)(F)F)C(F)(F)F and report
3.21

---

assay: activity coefficient (dimensionless); of the first substance listed, at infinite dilution; xn = mol fraction of the nth substance listed; settings: 303.15 K; Liquid; Dilutor technique; x1 = 0
Metric: activity coefficient
Response field accepts a number only; no unit should be typed.

# Molecule, Test value
rows = [
    ("c1ccccc1 [benzene] + CCCCCC[n+]1cccc(C)c1.O=S(=O)([N-]S(=O)(=O)C(F)(F)F)C(F)(F)F", 0.673),
]

What activity coefficient value was documented for this molecule, c1ccccc1 [benzene] + CCCCCCn1cc[n+](C)c1.F[B-](F)(F)F ?
1.39

// repeat for C1=CCCCC1 [cyclohexene] + CCCCCCn1cc[n+](C)c1.F[B-](F)(F)F and report
7.74

// repeat for C1=CCCCC1 [cyclohexene] + CCCCCC[n+]1cccc(C)c1.O=S(=O)([N-]S(=O)(=O)C(F)(F)F)C(F)(F)F and report
3.34
